Numbered stars: 1 amine (or outer) side, 2 acyl side, 3 side chain; on linkers, the order of the positions; unused ones are H or OH. Bridge positions count the residues as written; N and C are the ends. Square brackets hold non-standard residues; d marks the D form. Peptide text beside a SMILES is read from it. CH2COCH2 = O=C(C[*:1])C[*:2]; CH2 = C([*:1])[*:2]; Mpa = O=C(O)CCS
For reference, Ki measured on Kappa-type opioid receptor (Mus musculus):
readout: Ki (µM)

CC(C)C[C@H](NC(=O)[C@H](CCCCN)NC(=O)[C@@H]1CCCN1C(=O)[C@H](CCCNC(=N)N)NC(=O)[C@@H]1CSCSCCC(=O)N[C@@H](Cc2ccc(O)cc2)C(=O)NCC(=O)NCC(=O)N[C@@H](Cc2ccccc2)C(=O)N[C@@H](CC(C)C)C(=O)N[C@@H](CCCNC(=N)N)C(=O)N[C@@H](CCCNC(=N)N)C(=O)N1)C(=O)N[C@@H](CCCCN)C(=O)O ([Mpa]YGGFLRRCRPKLK-OH; linker 1-9 via CH2)
0.077
CC(C)C[C@H](NC(=O)[C@H](CCCCN)NC(=O)[C@@H]1CCCN1C(=O)[C@H](CCCNC(=N)N)NC(=O)[C@@H]1CSCC(=O)CSCCC(=O)N[C@@H](Cc2ccc(O)cc2)C(=O)NCC(=O)NCC(=O)N[C@@H](Cc2ccccc2)C(=O)N[C@@H](CC(C)C)C(=O)N[C@@H](CCCNC(=N)N)C(=O)N[C@@H](CCCNC(=N)N)C(=O)N1)C(=O)N[C@@H](CCCCN)C(=O)O ([Mpa]YGGFLRRCRPKLK-OH; linker 1-9 via CH2COCH2)
0.091
CC(C)C[C@H](NC(=O)[C@H](CCCCN)NC(=O)[C@@H]1CCCN1C(=O)[C@H](CCCNC(=N)N)NC(=O)[C@@H]1CSCC(=O)CSCCC(=O)N[C@@H](Cc2ccc(O)cc2)C(=O)NCC(=O)NCC(=O)N[C@@H](Cc2ccccc2)C(=O)N[C@@H](CC(C)C)C(=O)N[C@@H](CCCNC(=N)N)C(=O)N[C@@H](CCCNC(=N)N)C(=O)N1)C(=O)N[C@@H](CCCCN)C(N)=O ([Mpa]YGGFLRRCRPKLK-NH2; linker 1-9 via CH2COCH2)
0.032

----------
assay target: Kappa-type opioid receptor (Mus musculus)
Sequence (P33534 whole entry): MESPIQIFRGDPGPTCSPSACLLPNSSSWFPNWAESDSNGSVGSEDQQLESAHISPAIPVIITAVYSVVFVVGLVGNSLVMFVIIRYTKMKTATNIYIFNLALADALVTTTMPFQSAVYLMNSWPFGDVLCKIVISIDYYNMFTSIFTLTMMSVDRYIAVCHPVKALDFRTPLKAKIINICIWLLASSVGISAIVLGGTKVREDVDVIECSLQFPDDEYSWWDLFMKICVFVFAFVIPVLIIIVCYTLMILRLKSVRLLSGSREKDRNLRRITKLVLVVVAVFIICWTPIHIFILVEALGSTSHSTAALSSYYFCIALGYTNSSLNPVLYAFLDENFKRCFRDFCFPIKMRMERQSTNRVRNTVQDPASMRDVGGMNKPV
pKi: −log10 of the molar value. Numbered stars: 1 amine (or outer) side, 2 acyl side, 3 side chain; on linkers, the order of the positions; unused ones are H or OH. Bridge positions count the residues as written; N and C are the ends. Square brackets hold non-standard residues; d marks the D form. Peptide text beside a SMILES is read from it. CH2 = C([*:1])[*:2]; Mpa = O=C(O)CCS
readout: pKi

CC(C)C[C@H](NC(=O)[C@H](CCCCN)NC(=O)[C@@H]1CCCN1C(=O)[C@H](CCCNC(=N)N)NC(=O)[C@@H]1CSCSCCC(=O)N[C@@H](Cc2ccc(O)cc2)C(=O)NCC(=O)NCC(=O)N[C@@H](Cc2ccccc2)C(=O)N[C@@H](CC(C)C)C(=O)N[C@@H](CCCNC(=N)N)C(=O)N[C@@H](CCCNC(=N)N)C(=O)N1)C(=O)N[C@@H](CCCCN)C(N)=O ([Mpa]YGGFLRRCRPKLK-NH2; linker 1-9 via CH2)
8.17
